- systemUnderTest: UniProtKB P08684
- Sequence (P08684 whole entry): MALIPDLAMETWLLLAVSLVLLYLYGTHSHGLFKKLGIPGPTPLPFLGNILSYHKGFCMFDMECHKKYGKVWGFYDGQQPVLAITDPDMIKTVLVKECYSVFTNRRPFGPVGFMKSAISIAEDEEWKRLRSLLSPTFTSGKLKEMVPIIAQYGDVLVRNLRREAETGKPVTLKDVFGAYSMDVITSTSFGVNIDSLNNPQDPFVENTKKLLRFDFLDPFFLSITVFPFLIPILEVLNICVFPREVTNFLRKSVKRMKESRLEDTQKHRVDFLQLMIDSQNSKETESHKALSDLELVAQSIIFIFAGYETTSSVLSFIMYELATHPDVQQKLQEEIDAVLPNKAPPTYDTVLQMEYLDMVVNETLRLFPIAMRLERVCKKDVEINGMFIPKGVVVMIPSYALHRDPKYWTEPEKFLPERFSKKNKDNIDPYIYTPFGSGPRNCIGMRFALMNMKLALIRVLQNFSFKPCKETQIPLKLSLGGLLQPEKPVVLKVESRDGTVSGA
- procedureSummary: Inhibition of human recombinant CYP3A4 at 10 uM by spectrofluorimetry
- Type: ADME
reportedMetric: inhibition at 10 µM (%)

CCCCOC(=O)NS(=O)(=O)c1sc(CC(C)C)cc1-c1ccc(CN2CCC(=O)CC2)cc1 : 51
CCCCOC(=O)NS(=O)(=O)c1sc(CC(C)C)cc1-c1ccc(C(=O)c2nccs2)cc1 : 16
CCCCOC(=O)NS(=O)(=O)c1sc(CC(C)C)cc1-c1ccc(Cc2ncco2)cc1 : 57
CCCCOC(=O)NS(=O)(=O)c1sc(CC(C)C)cc1-c1ccc(Cn2cnc(C(F)(F)F)c2)cc1 : 71
CCCCOC(=O)NS(=O)(=O)c1sc(CC(C)C)cc1-c1ccc(Cn2ccc(C(F)(F)F)n2)cc1 : 33
